Data provenance is patent US12624044B2.

Reported DC50 values are given for each entry in this list.
# test_target: SMARCA2 (Homo sapiens, UniProt P51531)
# Sequence (P51531 whole entry): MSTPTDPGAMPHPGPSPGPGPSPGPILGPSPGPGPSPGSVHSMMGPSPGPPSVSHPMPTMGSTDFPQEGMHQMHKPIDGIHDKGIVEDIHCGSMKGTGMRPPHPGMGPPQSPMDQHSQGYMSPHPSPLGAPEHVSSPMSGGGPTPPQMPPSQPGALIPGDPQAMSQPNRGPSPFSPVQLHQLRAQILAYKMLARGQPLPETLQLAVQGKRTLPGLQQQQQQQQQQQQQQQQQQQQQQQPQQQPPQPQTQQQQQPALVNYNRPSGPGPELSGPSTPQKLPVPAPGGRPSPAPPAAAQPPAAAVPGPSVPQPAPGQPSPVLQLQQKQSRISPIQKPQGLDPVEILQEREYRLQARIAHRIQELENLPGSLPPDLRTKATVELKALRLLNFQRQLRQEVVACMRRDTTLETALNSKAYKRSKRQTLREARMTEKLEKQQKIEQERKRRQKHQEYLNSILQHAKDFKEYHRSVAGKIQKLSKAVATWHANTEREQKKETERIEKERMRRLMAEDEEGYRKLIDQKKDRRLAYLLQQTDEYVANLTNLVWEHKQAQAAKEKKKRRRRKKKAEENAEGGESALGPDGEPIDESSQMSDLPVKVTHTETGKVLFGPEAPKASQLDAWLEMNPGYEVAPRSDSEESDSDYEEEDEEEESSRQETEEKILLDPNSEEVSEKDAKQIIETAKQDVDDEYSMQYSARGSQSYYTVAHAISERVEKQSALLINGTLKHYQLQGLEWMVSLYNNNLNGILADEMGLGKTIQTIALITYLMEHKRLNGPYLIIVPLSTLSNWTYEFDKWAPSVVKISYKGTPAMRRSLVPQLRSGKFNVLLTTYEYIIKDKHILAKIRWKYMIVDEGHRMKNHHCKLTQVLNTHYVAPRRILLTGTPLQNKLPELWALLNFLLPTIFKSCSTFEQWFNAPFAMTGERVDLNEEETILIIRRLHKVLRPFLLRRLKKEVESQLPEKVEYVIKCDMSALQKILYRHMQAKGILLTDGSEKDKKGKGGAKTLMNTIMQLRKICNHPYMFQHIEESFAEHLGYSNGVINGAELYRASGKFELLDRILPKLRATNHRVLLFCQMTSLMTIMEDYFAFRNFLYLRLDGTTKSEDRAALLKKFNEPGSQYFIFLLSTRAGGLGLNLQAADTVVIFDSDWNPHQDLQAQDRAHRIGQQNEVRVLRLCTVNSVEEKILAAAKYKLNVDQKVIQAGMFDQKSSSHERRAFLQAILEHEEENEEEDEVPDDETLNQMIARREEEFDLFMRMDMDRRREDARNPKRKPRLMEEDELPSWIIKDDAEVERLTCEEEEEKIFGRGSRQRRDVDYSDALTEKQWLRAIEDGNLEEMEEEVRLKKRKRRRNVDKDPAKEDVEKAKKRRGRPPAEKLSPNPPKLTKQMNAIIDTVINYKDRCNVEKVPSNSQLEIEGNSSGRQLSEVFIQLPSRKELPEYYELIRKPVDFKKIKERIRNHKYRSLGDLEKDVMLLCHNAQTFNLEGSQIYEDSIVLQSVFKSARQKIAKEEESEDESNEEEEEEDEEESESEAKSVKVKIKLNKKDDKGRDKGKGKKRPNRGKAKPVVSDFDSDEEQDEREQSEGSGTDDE
# procedure_summary: MSD SMARCA2 degradation in A549 cell line
# Format: cell-based
# test_parameters: A549 cells, 24 h, read-out: SMARCA2 MSD A549 degradation 24 h: Average external-Abs DC50

Answered cases to consult:
molecule	test_target	DC50
Nc1nnc(-c2ccccc2O)cc1N1CC2CCC(C1)N2c1ncc(C2CCN(CCCCOc3ccc(Oc4ccc(N(Cc5ccccc5)C(=O)CCl)cc4)cc3)CC2)cn1	SMARCA2 (Homo sapiens, UniProt P51531)	> 1000 nM
Cn1c(=O)n(C2CCC(=O)NC2=O)c2ccc(CCCCCCCCCNCc3cccc(C#Cc4cc(NC(=O)Nc5cc(F)ncc5CO)ccn4)c3)cc21 (centres unmarked)	SMARCA2 (Homo sapiens, UniProt P51531)	> 1000 nM
Nc1nnc(-c2ccccc2O)cc1-c1cnn(C2CCN([C@H]3CC[C@H](CNc4ccc5c(c4)C(=O)N(C4CCC(=O)NC4=O)C5=O)CC3)CC2)c1 (some centres unmarked)	SMARCA2 (Homo sapiens, UniProt P51531)	< 100 nM
Nc1nnc(-c2ccccc2O)cc1-c1cnn(C2CCN([C@H]3CC[C@@H](CNc4ccc5c(c4)C(=O)N(C4CCC(=O)NC4=O)C5=O)CC3)CC2)c1 (some centres unmarked)	SMARCA2 (Homo sapiens, UniProt P51531)	< 100 nM

Query molecule follows.
Which value of DC50 has been reported for Cc1ncsc1-c1ccc(CNC(=O)[C@@H]2C[C@@H](O)CN2C(=O)[C@@H](NC(=O)[C@H]2CC[C@H](N3CCC(CN4CCC(Cn5cc(-c6cc(-c7ccccc7O)nnc6N)cn5)CC4)CC3)CC2)C(C)(C)C)cc1 in the records?
> 1000 nM
